# Tested on: S. aureus ATCC BAA-2313 (MRSA SCCmec type XI)
# MEASUREMENT_NOTES: MIC, broth dilution
# Type: cell-based, Staphylococcus aureus
# TEST_SETTINGS: Table 5; STIP3 variants, highest concentration 100 μg/mL
Ends that are not written are not given here.
MEASUREMENT_NAME: MIC S. aureus ATCC BAA 2313 (XI) (µg/mL)
Answer format: numeric, µg/mL implied, no suffix.

| SUBSTANCE | MIC S. aureus ATCC BAA 2313 (XI) [µg/mL] |
| --- | --- |
| TVGGLVKWILDWVKKFA [STIP3-10, TVGGLVKWILDWVKKFA] | 50 |
| TVGGLVKWILATVKKFA-NH2 [STIP3-28, TVGGLVKWILATVKKFA-NH2] | 12.5 |

Q. Could you please provide reported MIC S. aureus ATCC BAA 2313 (XI) for TVGGLVKWILDTVKKFA [STIP3-1, TVGGLVKWILDTVKKFA] ? Thanks!
A. 100

====

# System: Mannheimia haemolytica ATCC 33393
# MEASUREMENT_NOTES: MIC, broth dilution
# Format: cell-based
# TEST_SETTINGS: M. haemolytica ATCC 33393
Ends that are not written are not given here.
MEASUREMENT_NAME: MIC M. haemolytica (µg/mL)
Answer format: numeric, µg/mL implied, no suffix.

Recorded MIC M. haemolytica, per entry:
| SUBSTANCE | MIC M. haemolytica [µg/mL] |
| --- | --- |
| TVKSFVNLILKTVKKYAK [STIP8-2] | 100 |
| TVTKFVKLIAETVKKFTK [STIP9-1] | 200 |

Q. Could you please provide reported MIC M. haemolytica for TVTKFVKLIAKTVKKFTK [STIP9-2] ? Thanks!
A. 100

Q. Could you please provide reported MIC M. haemolytica for TVTKFVKLIAKTVKKFTK-NH2 [STIP9-3] ? Thanks!
A. 100

Q. Could you please provide reported MIC M. haemolytica for TVKSFVNLILKTVKKYAK-NH2 [STIP8-3] ? Thanks!
A. 50

====

# Test system: Candida duobushaemulonii AR 391
# MEASUREMENT_NOTES: MIC, YPD broth, CDC and FDA AR Candida isolate panel
# Type: cell-based
# TEST_SETTINGS: Table 9 below the line: only 200 or 100 μg/mL tested; values reported as 100 are ≤100 μg/mL
Ends that are not written are not given here.
Reported MIC (μg/mL) Candida duobushaemulonii AR 391 values for a set of substances

| SUBSTANCE | TEST_RESULT |
| --- | --- |
| TVGGLVKWILKTVKKFA [STIP3-3, TVGGLVKWILKTVKKFA] | ≤ 100 µg/mL |
| TVGGLVKWILKAVKKFA [STIP3-13, TVGGLVKWILKAVKKFA] | ≤ 100 µg/mL |

Could you now look at the following substance, please?
Q. Could you please provide reported MIC (μg/mL) Candida duobushaemulonii AR 391 for TVKKLVKWILKTVKKFA [STIP3-18, TVKKLVKWILKTVKKFA] ? Thanks!
A. ≤ 100 µg/mL

====

# Tested on: S. aureus ATCC BAA-44 (MRSA SCCmec type I)
# MEASUREMENT_NOTES: MIC, broth dilution
# Format: cell-based, Staphylococcus aureus
# TEST_SETTINGS: Table 5; STIP3 variants, highest concentration 100 μg/mL
Ends that are not written are not given here.
Reported MIC S. aureus ATCC BAA 44 (I) values for a set of substances
Answer format: numeric, µg/mL implied, no suffix.

| SUBSTANCE | MEASUREMENT_NAME | TEST_RESULT |
| --- | --- | --- |
| TVKALVKWILKTVAKFW [STIP3-21, TVKALVKWILKTVAKFW] | MIC S. aureus ATCC BAA 44 (I) | 25 |
| TVGGLVKWILDTVKKFW [STIP3-6, TVGGLVKWILDTVKKFW] | MIC S. aureus ATCC BAA 44 (I) | 25 |
| TVGGLVKWILATVKKFA [STIP3-2, TVGGLVKWILATVKKFA] | MIC S. aureus ATCC BAA 44 (I) | 100 |
| TVGGLVKWILATVKKFA-NH2 [STIP3-28, TVGGLVKWILATVKKFA-NH2] | MIC S. aureus ATCC BAA 44 (I) | 12.5 |
| TVGGLVKWILDTVKKFA-NH2 [STIP3-27, TVGGLVKWILDTVKKFA-NH2] | MIC S. aureus ATCC BAA 44 (I) | 25 |
| TVGGLVKWILDTVKKFI [STIP3-5, TVGGLVKWILDTVKKFI] | MIC S. aureus ATCC BAA 44 (I) | 50 |
| TVKALVKWILKTVAKFA [STIP3-19, TVKALVKWILKTVAKFA] | MIC S. aureus ATCC BAA 44 (I) | 25 |
| TVKGLVKWILNVVKKFA-NH2 [STIP3-30, TVKGLVKWILNVVKKFA-NH2] | MIC S. aureus ATCC BAA 44 (I) | 12.5 |

Q. Could you please provide reported MIC S. aureus ATCC BAA 44 (I) for TVGGLVKWILKTVKKFA [STIP3-3, TVGGLVKWILKTVKKFA] ? Thanks!
A. 25

====

# Tested on: Candida duobushaemulonii AR 392
# MEASUREMENT_NOTES: MIC, YPD broth, CDC and FDA AR Candida isolate panel
# Type: cell-based
# TEST_SETTINGS: Table 9 below the line: only 200 or 100 μg/mL tested; values reported as 100 are ≤100 μg/mL
# Experimental: MIC determination. MICs were measured using peptides with 95% purity. For bacterial studies, cation-adjusted Mueller Hinton (MH) broth was used as the growth medium whereas Yeast Peptone Dextrose (YPD; 10 g/L yeast extract, 20 g/L peptone, 20 g/L dextrose) was used for Candida spp. and other yeast. […]
Ends that are not written are not given here.
MEASUREMENT_NAME: MIC (μg/mL) Candida duobushaemulonii AR 392

Q. Could you please provide reported MIC (μg/mL) Candida duobushaemulonii AR 392 for TVKKLVKWILKTVKKFA [STIP3-18, TVKKLVKWILKTVKKFA] ? Thanks!
A. ≤ 100 µg/mL

====

Reported MIC (μg/mL) Candida krusei AR 397 values for a set of substances
# System: Candida krusei AR 397
# MEASUREMENT_NOTES: MIC, YPD broth, CDC and FDA AR Candida isolate panel
# Format: cell-based
# TEST_SETTINGS: Table 9 below the line: only 200 or 100 μg/mL tested; values reported as 100 are ≤100 μg/mL
Ends that are not written are not given here.

Recorded MIC (μg/mL) Candida krusei AR 397, per entry:
| SUBSTANCE | MIC (μg/mL) Candida krusei AR 397 |
| --- | --- |
| TVKGLVKWILATVKKFA [STIP3-16, TVKGLVKWILATVKKFA] | ≤ 100 µg/mL |
| TVGGLVKWILDTVKKFI [STIP3-5, TVGGLVKWILDTVKKFI] | ≤ 100 µg/mL |
| TVGGLVKWILDTVKKFW [STIP3-6, TVGGLVKWILDTVKKFW] | ≤ 100 µg/mL |
| TVGVLVKWILDTVKKFA [STIP3-8, TVGVLVKWILDTVKKFA] | ≤ 100 µg/mL |

Q. Could you please provide reported MIC (μg/mL) Candida krusei AR 397 for TVKKLVKWILKTVKKFA [STIP3-18, TVKKLVKWILKTVKKFA] ? Thanks!
A. ≤ 100 µg/mL

Q. Could you please provide reported MIC (μg/mL) Candida krusei AR 397 for TVGGLVKWILDVVKKFA [STIP3-9, TVGGLVKWILDVVKKFA] ? Thanks!
A. ≤ 100 µg/mL

Q. Could you please provide reported MIC (μg/mL) Candida krusei AR 397 for TVGGLVKWILDTVKKFA-NH2 [STIP3-27, TVGGLVKWILDTVKKFA-NH2] ? Thanks!
A. ≤ 100 µg/mL

====

Reported MIC S. aureus ATCC BAA 2313 (XI) values for a set of substances
# Tested on: S. aureus ATCC BAA-2313 (MRSA SCCmec type XI)
# MEASUREMENT_NOTES: MIC, broth dilution
# Format: cell-based, Staphylococcus aureus
# TEST_SETTINGS: Table 5; STIP3 variants, highest concentration 100 μg/mL
Ends that are not written are not given here.
Answer format: numeric, µg/mL implied, no suffix.

Recorded MIC S. aureus ATCC BAA 2313 (XI), per entry:
| SUBSTANCE | TEST_RESULT |
| --- | --- |
| TVGGLVKWILDVVKKFA [STIP3-9, TVGGLVKWILDVVKKFA] | 25 |
| TVGGLVKWILDTVKKFI [STIP3-5, TVGGLVKWILDTVKKFI] | 25 |
| TVGGLVKWILDTVKKFA-NH2 [STIP3-27, TVGGLVKWILDTVKKFA-NH2] | 50 |

Could you now look at the following substance, please?
Q. Could you please provide reported MIC S. aureus ATCC BAA 2313 (XI) for TVKALVKWILKTVAKFW [STIP3-21, TVKALVKWILKTVAKFW] ? Thanks!
A. 12.5
